Reported values of Log10 CFU/g of catheter (D 8) Mean ± SEM for individual entries
Tested on: ATCC 43300 MRSA strain
Assay: In vivo murine model of catheter associated infection, 24 h and 72 h MRSA biofilms
Set-up: species or system Staphylococcus aureus
Settings: Biofilm (72 h); 5.5-day treatment (D3-D8); BALB/c mice; doses as in Table 2

structureAsSmiles | Log10 CFU/g of catheter (D 8) Mean ± SEM
CCCCCCCCCC(=O)N[C@@H](Cc1c[nH]c2ccccc12)C(=O)N[C@H](CC(N)=O)C(=O)N[C@@H](CC(=O)O)C(=O)N[C@@H]1C(=O)NCC(=O)N[C@@H](CCCN)C(=O)N[C@@H](CC(=O)O)C(=O)N[C@H](C)C(=O)N[C@@H](CC(=O)O)C(=O)NCC(=O)N[C@H](CO)C(=O)N[C@@H]([C@H](C)CC(=O)O)C(=O)N[C@@H](CC(=O)c2ccccc2N)C(=O)O[C@@H]1C | 5.42 ± 0.104 Log10 CFU/g of catheter

input: Report measured Log10 CFU/g of catheter (D 8) Mean ± SEM on ATCC 43300 MRSA strain; entry: CO[C@H]1/C=C/O[C@@]2(C)Oc3c(C)c(O)c4c(O)c(c(/C=N/N5CCN(C)CC5)c(O)c4c3C2=O)NC(=O)/C(C)=C\C=C\[C@H](C)[C@H](O)[C@@H](C)[C@@H](O)[C@@H](C)[C@H](OC(C)=O)[C@@H]1C
output: 3.80 ± 0.113 Log10 CFU/g of catheter

input: State recorded Log10 CFU/g of catheter (D 8) Mean ± SEM with ATCC 43300 MRSA strain, entry CN[C@H](CC(C)C)C(=O)N[C@H]1C(=O)N[C@@H](CC(N)=O)C(=O)N[C@H]2C(=O)N[C@H]3C(=O)N[C@H](C(=O)N[C@H](C(=O)O)c4cc(O)cc(O)c4-c4cc3ccc4O)[C@H](O)c3ccc(c(Cl)c3)Oc3cc2cc(c3O[C@@H]2O[C@H](CO)[C@@H](O)[C@H](O)[C@H]2O[C@H]2C[C@](C)(N)[C@H](O)[C@H](C)O2)Oc2ccc(cc2Cl)[C@H]1O , no comment.
output: 4.84 ± 0.077 Log10 CFU/g of catheter

input: # return Log10 CFU/g of catheter (D 8) Mean ± SEM for Cc1c(CN(C)C(=O)/C=C/c2cnc3c(c2)CCC(=O)N3COP(=O)(O)O)oc2ccccc12 , test system: ATCC 43300 MRSA strain
output: 5.75 ± 0.069 Log10 CFU/g of catheter
